Attribute: protein stability index
assay: protein stability index of a GFP-peptide fusion (GPS, HEK-293T) (PSI 1-6); higher = more stable; conditions: treatment: MLN4924 1 uM, 8 h; c terminus: a fixed tail appended;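 note: 24-mer peptide tiles fused after GFP, lentivirally expressed, FACS-sorted into six equal bins by GFP/DsRed ratio, decoded by Illumina sequencing, PSI is the read-weighted mean bin number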
Number only, please.

Worked set:
- seq_text: "QRDLSPTAEDAELSDFEECEETGE [FCHSD1]"
  experimental_endpoint: "protein stability index"
  observed_value: 5.54
- seq_text: "LGIPKSTTSDIPHMLNQVESKVKD [FAM98B]"
  experimental_endpoint: "protein stability index"
  observed_value: 5.23
- seq_text: "CDQYSCALTGPVVDIVTGHARLSD [DHCR7]"
  experimental_endpoint: "protein stability index"
  observed_value: 3.71

Now look at this entry.
// fetch protein stability index given entry YFGSFATVGLLWFAHHSLFLHVRK [TMEM175] 3.15

---

assay: protein stability index of a GFP-peptide fusion (GPS, HEK-293T) (PSI 1-6); higher = more stable; conditions: treatment: DMSO; c terminus: a fixed tail appended
experimental_endpoint: protein stability index
Respond numerically, and do not add a unit to the figure.

Worked cases, protein stability index given:
- seq_text: "QRAQAEVLQSVRELSRSRKLYGQR [FCHSD1]"
  protein stability index: 3.76
- seq_text: "EAPKYHIPYWVAYYLALLLSLLVM [NSDHL]"
  protein stability index: 2.63
- seq_text: "KSMHREELEKSGHGQAGQRQDPRP [ZBED2]"
  protein stability index: 5.21

Answer with reported protein stability index of DFQPREEAMLYHNQTAELRELLEF [P3H4] 3.96

Supply protein stability index value. Item: DATLSLKQTILDKEEKQRRNVAKN [TTC32] 4.99

Supply reported protein stability index belonging to this sequence: KICESLNVPVDDSLVKELLRMCSH [EFHC1] 2.11

Give me measured protein stability index, please, for this sequence: PVFLHSQMLWELVLLGEPLVVMAP [DENND6A] 2.81

Specify measured protein stability index for NPQSPPQDSSVTSKRNIKKGAVPR [HDAC6] . 4.99

Quickly give me recorded protein stability index for CAKMEKDGYGMTPLLSASVTGHTN [FEM1C] 3.58

Fill in reported protein stability index for this entry: EKEMKAQEQRLGIRISMSHEEEPL [GMPPB] 5.23

Indicate its recorded protein stability index; the sequence in question is PLLLKEILKHTPKEHPDVQLLEDA [NET1] 3.82

Consider the sequence IFYDLVRQINRKTPVPGKARKKSS [RAP1B] and give its recorded protein stability index. 2.47

Give the value of protein stability index reported for the following: MGNSMKSTPAPAERPLPNPEGLDS [SLA] 5.07

---

assay: protein stability index of a GFP-peptide fusion (GPS, HEK-293T) (PSI 1-6); higher = more stable; conditions: treatment: MLN4924 1 uM, 8 h; c terminus: a fixed tail appended
experimental_endpoint: protein stability index
Lab note: write the figure by itself, no unit.

- seq_text: "LLRHGMDRLWRPSKVLSLQDLCCR [RAB40B]"
  experimental_endpoint: "protein stability index"
  observed_value: 2.97
- seq_text: "KPYGCVECGKAFSRSSILVQHQRV [ZNF24]"
  experimental_endpoint: "protein stability index"
  observed_value: 2.11
- seq_text: "MHYCAVPPRGPLGQGAMFRLPTDS [NEUROD6]"
  experimental_endpoint: "protein stability index"
  observed_value: 3.17
- seq_text: "EHGDQLLSIRCQHQEQVEDLTASH [MTUS2]"
  experimental_endpoint: "protein stability index"
  observed_value: 5.09
- seq_text: "GSPEQLQIPVTDSGRHILEDSCAE [SDE2]"
  experimental_endpoint: "protein stability index"
  observed_value: 5.5
- seq_text: "CLTAGPEVAAQLPAVRQLLPCARV [ZSWIM9]"
  experimental_endpoint: "protein stability index"
  observed_value: 2.97
- seq_text: "RSPRAGAGALLRLPSERLDFSMAE [PRPH]"
  experimental_endpoint: "protein stability index"
  observed_value: 4.21
- seq_text: "VEMESEEQIAERKRKMVSWEASSL [KMT2E]"
  experimental_endpoint: "protein stability index"
  observed_value: 3.87

Give the measured protein stability index for LLMTSGVVLCEGVKWLSFHSGYDF [CNOT7] 2.9

Given LALGVSLLCNAITGITLLRVKFKS [PTGFR] , respond with its protein stability index. 2.73

# return recorded protein stability index for entry TRKREDAEHNLVLFRKDVDDATLS [PRPH] 4.73

// fetch protein stability index given entry QLDALPFFVITMIKIVLINSFGAI [SLC29A1] 3.31

# return recorded protein stability index for entry RIHVLPSLNPDGYEKAYEGGSELG [CPXM2] 4.36

FYI, the data here is from the supplement of paper PMC10567573.
